Origin of measurements: paper PMC8809517

Biological target: T1, GFP-9S library array, motif 4 ND N98S;D124S (synthetic construct, N98S;D124S)
T1 chain: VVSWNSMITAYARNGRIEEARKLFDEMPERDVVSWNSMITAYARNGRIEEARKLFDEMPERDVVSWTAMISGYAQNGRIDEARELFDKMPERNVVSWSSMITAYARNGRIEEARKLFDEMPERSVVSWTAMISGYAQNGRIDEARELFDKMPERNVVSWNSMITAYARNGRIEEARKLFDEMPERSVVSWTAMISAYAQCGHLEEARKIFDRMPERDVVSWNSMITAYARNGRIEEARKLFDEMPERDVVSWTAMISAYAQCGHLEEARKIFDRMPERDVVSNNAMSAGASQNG
Assay: high-throughput RNA pulldown from lysate on Ni-NTA beads; HRP: 50 mM Tris pH 8, 150 mM NaCl, 1 mM beta-mercaptoethanol, 50 ug/ml BSA, 3 ug/ml yeast RNA, 0.5% heparin; ITC and FP: Tris pH 8, 200 mM KCl, 5% glycerol; MST: 50 mM Tris pH 8, 200 mM NaCl, 1 mM DTT, BSA, heparin, 0.05% Tween 20
Conditions: tags: N-terminal His-eGFP; label: 5' Cy5
Please provide measured Kd for the entries that follow.
Hey, just the number and the unit after it is fine.

binder: AUUACACGUGA (ssRNA) [Cy5-rpoA]
experimental_endpoint: Kd
result: 112 nM

Switching to the query record.
Q: Hello, please tell me recorded Kd for this one: AUUAGACGUGA (ssRNA) [Cy5-rpoA-G]
Result: 251 nM
